The origin of these recorded values is the supplement of paper PMC3334620.

Target: Ybr033w (UniProt P38073)
Sequence: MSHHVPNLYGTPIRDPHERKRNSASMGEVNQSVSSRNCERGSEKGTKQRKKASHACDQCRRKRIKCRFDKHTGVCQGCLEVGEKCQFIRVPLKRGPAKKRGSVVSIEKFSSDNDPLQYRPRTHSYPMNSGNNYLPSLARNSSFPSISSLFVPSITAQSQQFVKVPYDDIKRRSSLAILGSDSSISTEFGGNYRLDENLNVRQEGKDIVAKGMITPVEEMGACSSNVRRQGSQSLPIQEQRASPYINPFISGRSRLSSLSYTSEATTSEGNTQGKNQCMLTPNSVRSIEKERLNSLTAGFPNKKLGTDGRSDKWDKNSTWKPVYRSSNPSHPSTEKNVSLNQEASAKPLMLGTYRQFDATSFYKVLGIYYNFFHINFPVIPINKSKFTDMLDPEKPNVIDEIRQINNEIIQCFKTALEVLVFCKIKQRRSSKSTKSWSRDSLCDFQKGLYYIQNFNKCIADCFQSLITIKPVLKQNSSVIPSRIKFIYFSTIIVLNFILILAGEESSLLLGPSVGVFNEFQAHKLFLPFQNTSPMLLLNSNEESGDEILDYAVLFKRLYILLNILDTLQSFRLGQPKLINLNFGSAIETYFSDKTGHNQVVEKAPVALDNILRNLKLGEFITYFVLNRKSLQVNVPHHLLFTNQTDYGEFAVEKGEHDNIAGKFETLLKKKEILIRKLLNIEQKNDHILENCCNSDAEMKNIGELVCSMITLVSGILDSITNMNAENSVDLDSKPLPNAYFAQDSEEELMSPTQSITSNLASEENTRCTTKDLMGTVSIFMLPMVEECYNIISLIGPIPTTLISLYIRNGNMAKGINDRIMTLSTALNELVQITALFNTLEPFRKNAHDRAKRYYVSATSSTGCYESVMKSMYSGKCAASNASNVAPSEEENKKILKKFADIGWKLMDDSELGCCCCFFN
Experiment: PBM E-score (8-mer binding enrichment) (E-score (-0.5 to 0.5)); higher = stronger / more preferred TF binding
Conditions: protein concentration: 200 nM; construct: GST-full length
In all, about 33,000 sequences were measured (“E-score (-0.5 to 0.5)”: median about -0.012, highest 2% from about 0.29 on). What follows is part of a selection rich in the highest values, with near analogues and random picks from the rest.
I would appreciate it if you labelled entries TRUE when PBM E-score is 0.3 or higher, otherwise FALSE.

Consider the worked cases shown below.
sequence content: GGGGAGGA
label: FALSE

sequence content: ATTAGTTG
label: FALSE

sequence content: ATTAATTA
label: TRUE

sequence content: ATTAATTG
label: FALSE

sequence content: GTTAATTA
label: FALSE

Check this sequence for PBM E-score at or above 0.3: TGATATAA FALSE

# check: PBM E-score of ATTAGTTA is greater than or equal to 0.3 TRUE
